assay: chemical genetic growth profiling, strain panel (AID 1159580);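 note: tested at 20 µM; growth read once vehicle control cultures reached saturation at 30 °C; 1 = growth at the plate median or of vehicle wells; lower values mean less growth of the strain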; conditions: S. cerevisiae deletion strains, growth OD, locus YDR150W, strain NUM1, stronger effect = lower value
Among all 5,500 compounds or so, about 2,000 (36%) were called active. Not shown: some 18% with an inconclusive outcome. This is one part of the list.
assay-metric: normalized growth

[
  {
    "molecule": "CC(=O)SC1CC2=CC(=O)CC[C@]2(C)C2CC[C@@]3(C)C(CC[C@@]34CCC(=O)O4)C12 (stereo not given in full)",
    "assay-metric": "normalized growth",
    "value-reported": 1.01
  },
  {
    "molecule": "COC(=O)c1csc2c(C(F)(F)F)cc(N3CCN(S(=O)(=O)c4ccc(C)cc4)CC3)nc12",
    "assay-metric": "normalized growth",
    "value-reported": 1.05
  },
  {
    "molecule": "O=S(=O)(c1ccc(Cl)c(Cl)c1)N1CCN(c2ccc(C(F)(F)F)cn2)CC1",
    "assay-metric": "normalized growth",
    "value-reported": 1.02
  },
  {
    "molecule": "COc1ccccc1N1CCN(S(=O)(=O)c2ccc(C(F)(F)F)cc2)CC1",
    "assay-metric": "normalized growth",
    "value-reported": 0.989
  },
  {
    "molecule": "Cc1onc(-c2c(F)cccc2Cl)c1C(=O)N1CCN(c2ncccc2C(F)(F)F)CC1",
    "assay-metric": "normalized growth",
    "value-reported": 0.972
  }
]

----------
experiment: chemical genetic growth profiling, strain panel (AID 1159580);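 note: tested at 20 µM; growth read once vehicle control cultures reached saturation at 30 °C; 1 = growth at the plate median or of vehicle wells; lower values mean less growth of the strain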; settings: S. cerevisiae deletion strains, growth OD, locus YDR502C, strain sam2
In all, about 5,500 compounds went through this assay and about 2,000 (36%) were called active. Another 18% or so got no clear call; they are omitted. Rule as the data show it: active = normalized growth mostly below about 0.91 (no sharp cut-off); inconclusive = no clear call, values can overlap the other calls; inactive = mostly above about 0.92. The list shows a part of the results.
Outcome codes: T = active, F = inactive

[
  {
    "molecule": "CC(C)(O)CC[C@@H](O)[C@](C)(O)C1CC[C@@]2(O)C3=CC(=O)C4C[C@@H](O)[C@@H](O)C[C@]4(C)C3CC[C@]12C (some centres undefined)",
    "discrete-label": "F"
  },
  {
    "molecule": "COc1ccc2[nH]cc(CCNC(C)=O)c2c1",
    "discrete-label": "F"
  },
  {
    "molecule": "COC(=O)C[C@H]1C(C)(C)C(OC(C)=O)[C@]2(O)C=C3C4CC(=O)O[C@@H](c5ccoc5)[C@]4(C)CCC3[C@@]1(C)C2=O (some centres undefined)",
    "discrete-label": "F"
  },
  {
    "molecule": "O=C1OC(=O)C2C3CCC(O3)C12 (centres undefined)",
    "discrete-label": "F"
  },
  {
    "molecule": "COc1cc(O)c(C(=O)O)c(O)c1",
    "discrete-label": "F"
  },
  {
    "molecule": "CCCC(=O)Nc1ncnc2c1ncn2C1O[C@@H]2COP(=O)(O)O[C@H]2[C@H]1OC(=O)CCC (some centres undefined)",
    "discrete-label": "F"
  },
  {
    "molecule": "C[C@]12CCC3C(CC[C@H]4C[C@@H](O)CC[C@]34C)C1CCC2=O (some centres undefined)",
    "discrete-label": "T"
  },
  {
    "molecule": "COC(=O)C[C@H]1C(C)(C)[C@@H](OC(C)=O)[C@@H]2CC3C4CC(=O)O[C@@H](c5ccoc5)[C@]4(C)CCC3[C@@]1(C)C2=O (some centres undefined)",
    "discrete-label": "F"
  },
  {
    "molecule": "C[N+]1(C)C2CC[C@H]1CC(OC(=O)C(O)c1ccccc1)C2 (some centres undefined)",
    "discrete-label": "F"
  }
]
